Values were extracted from patent EP4748840A1.

Catalogue of DC50 readings, one per entry.
test-target: IRAK4 (Homo sapiens)
Construct: expressed in transfected cells; host or cells: THP1 (THP1-HIBiT-IRAK4 engineered line)
Sequence (Q9NWZ3 whole entry): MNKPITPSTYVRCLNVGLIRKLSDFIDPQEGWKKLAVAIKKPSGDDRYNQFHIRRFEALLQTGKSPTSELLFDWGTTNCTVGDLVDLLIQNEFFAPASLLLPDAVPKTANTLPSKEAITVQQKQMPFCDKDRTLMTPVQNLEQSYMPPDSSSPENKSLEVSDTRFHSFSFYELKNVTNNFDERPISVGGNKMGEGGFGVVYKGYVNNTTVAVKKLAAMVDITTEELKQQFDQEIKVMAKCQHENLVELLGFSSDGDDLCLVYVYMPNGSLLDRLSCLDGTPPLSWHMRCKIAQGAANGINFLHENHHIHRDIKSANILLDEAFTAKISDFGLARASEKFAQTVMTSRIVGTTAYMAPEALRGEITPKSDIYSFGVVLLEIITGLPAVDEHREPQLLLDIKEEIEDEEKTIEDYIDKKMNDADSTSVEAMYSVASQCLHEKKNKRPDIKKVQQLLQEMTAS
protocol: HiBiT-based intracellular degradation assay of THP1-HIBiT-IRAK4 cells
Format: cell-based
settings: half-maximal degradation concentration of IRAK4 protein, 24 h incubation
Protocol: HiBiT-based intracellular degradation assay of THP1-HIBiT-IRAK4 cells THP1-HIBiT-IRAK4 cells were cultured in RPMI 1640 medium supplemented with 10% fetal bovine serum (FBS) and 1% penicillin-streptomycin (PS) (37°C and 5% CO2). The THP1-HIBiT-IRAK4 cells were inoculated in a 384-well plate at 5000 cells/40 µL/well. […] HiBiT lysis detection reagents were added to the wells, the plate was incubated for 30 min at room temperature, and luminescence values were read on Envision. […]

compound	relation-operator	DC50 [nM]
CC(C)(O)c1cc2nc(C3CCN(CCCCC#Cc4cccc5c4CN(C4CCC(=O)NC4=O)C5=O)CC3)cn2cc1NC(=O)c1cccc(C(F)(F)F)n1 (centres unmarked) [Comparative Example 2, reference compound]	>	10000
CC(C)(O)c1cc2nc(C3CCN(CC4CCN(c5ccc6c(c5)CN(C5CCC(=O)NC5=O)C6=O)CC4)CC3)cn2cc1NC(=O)c1cccc(C(F)(F)F)n1 (centres unmarked) [Example 7]	=	1.36
COc1cc2nc(C3CCN(CCN4CCN(c5ccc6c(c5)C(=O)N(C5CCC(=O)NC5=O)C6=O)CC4)CC3)cn2cc1NC(=O)c1cccc(C(F)(F)F)n1 (centres unmarked) [Example 11]	=	2.23
CC(C)(O)c1cc2nc(C3CCN(CC4CCN(c5cc6c(cc5F)C(=O)N([C@H]5CCC(=O)NC5=O)C6=O)CC4)CC3)cn2cc1NC(=O)c1cccc(C(F)(F)F)n1 [Example 26]	=	2.15
CC(C)(O)c1cc2nc(C3CCN(CCN4CC5(CCN(c6ccc7c(c6)C(=O)N(C6CCC(=O)NC6=O)C7=O)CC5)C4)CC3)cn2cc1NC(=O)c1cccc(C(F)(F)F)n1 (centres unmarked) [Example 17]	=	4.86
